# Conditions: in water, 313.15 K
Measured Metric: solubility (mole fraction)
Give only the figure.

// query Requested field: solubility (mole fraction). Item: COc1ccc2c(c1)c(CC(=O)O)c(C)n2C(=O)c1ccc(Cl)cc1
// result 1.52e-06

====

# Conditions: in 1,4-dioxane, 303.15 K
Measured Metric: solubility (mole fraction)
Give only the figure.

// query # query: solubility (mole fraction) of entry COc1ccc2c(c1)c(CC(=O)O)c(C)n2C(=O)c1ccc(Cl)cc1
// result 0.0343

====

# Conditions: in 1,4-dioxane, 298.15 K
Measured Metric: solubility (mole fraction)
Answer with the value's number alone.

// query Find the recorded solubility (mole fraction) belonging to COc1ccc2c(c1)c(CC(=O)O)c(C)n2C(=O)c1ccc(Cl)cc1 and report it.
// result 0.029
